- ASSAY SUMMARY: soluble on expression in E. coli; label from the status in PepcDB or PDB records
OBSERVED PROPERTY: soluble on expression in E. coli

Sample answers from the record:
RESIDUE CODES: MFTIKKATTNDIQLINEMAQIVFPATYREILSKEQLDYMMDWMYSPKNLRKQMEEEGHIYYIAYKDGEAAGYVSIQPEGEHLFHLQKIYVLPLFQGCRLGKALFEQAVKAIKEIHPGPCEMHLNVNRNNKALQFYQHLGMEKVAEGDFHIGNGYYMNDYIMGLKI
OBSERVED PROPERTY: soluble on expression in E. coli
MEASURED: not soluble

RESIDUE CODES: ASTLGFKARIHMSHDATDWKINKLLQNGVEVKIYDDNFSNAVAAARVSSQRDPYSYFIDDEGSKLLFAGYATAGERVKKQLSKMQIEVSKEHPLVVYLPAGVGGSPSGVAFGLKLQFADAVIPIFVEPTHMPSVLLGMASGLNHDISVYDIGIDGKTAADGLAVGRPSMIAGKYMKDKLFGIATVSDSDMFAYQGMLKKLENIEVEPSAAVGIRGLIQSKEISEIPDSATHMVWATGGSMVPKNTMHKYEDKAVRIFNTWKS
OBSERVED PROPERTY: soluble on expression in E. coli
MEASURED: not soluble

RESIDUE CODES: MKRLTIEMLPTLIGNEKLLVDCLFILFCTLKTKSLPPIRVLVRTNQSNLILDTLYEKLSKAVDKKLIFVASPEKPFDVIITDIFSEVSVKSTVPTYYVDFSASIGELAQSLENLNTQIVTKQSPRHF
OBSERVED PROPERTY: soluble on expression in E. coli
MEASURED: not soluble

RESIDUE CODES: MGHHHHHHSHMREPWLFGEEHTRLIREAIRERYGLLPYWYSLFYHAHVASQPVMRPLWVEFPDELKTFDMEDEYMLGSALLVHPVTEPKATTVDVFLPGSNEVWYDYKTFAHWEGGCTVKIPVALDTIPVFQRGGSVIPIKTTV
OBSERVED PROPERTY: soluble on expression in E. coli
MEASURED: soluble

RESIDUE CODES: MGHHHHHHSHMEWKVKIRSDGTRYITKRPVRDRILKERALKIKEERSGMTTDDDTMSEMKMGRYWSKEERKQHLVRAKEQRRRREFMMRSRLECLKESPQSGSEGKKEINIIELSHKKMMKKRNKKILDNWMTIQELMTHGAKSPDGTRVHNAFLSVTTV
OBSERVED PROPERTY: soluble on expression in E. coli
MEASURED: not soluble

Give its soluble on expression in E. coli value. Item: "MRKIKLIAVVGPTAVGKTALGIELAKTFNGEIISGDSQQVYQKLDIGTAKASKEEQEQAYHHLIDVREVNENYSVYDFVKEAKVAIDTIISKGKIPIIVGGTGLYLQSLFEGYHLGGEVNQETLMAYREKLESLSDEDLFEKLTEQSIIIPQVNRRRAIRALELAKFGNDLQNSESPYDVLLIGLNDDRQVLYDRINRRVDLMMDNGLLDEAKWLYDNYPSVQASKGIGYKELFPYFSKQIPLEEAVDKLKQNTRRFAKRQLTWFRNRMNVEFIMVGEENYQQKIKRKVSDFLSSKLEHHHHHH"
soluble

Also need "MEILTLEQQKSFIKAIDGHKLEVLFLLALGTGLRLGELLGLKWFDIDFKKSNLTVKRTLQRTYFIDKTGNRELKVLEQGPKTSNSYRTVPIPKDVLNKLKEHKVNQNTDILKAGELYINNNYVFCNELGIPIDDKRPLRNLKSILNSLNIEPIKFHGLRKTYATRLFENDVPPKTVQVLMGHYDISITLNIYTQVMEDKKVEAVEKLDKIFSLEHHHHHH" , thanks.
soluble

Also need "MGEIADSLAGLTISVVSPDNQLAATVRRRREVTVHFRPGSYERYDARTLETQLSQLFTLVMSGYRQGYMSVMEAHDMTVMADASDVDTEAGRIVRRRRDETVALGESAQGMVRAKTRGLSEWRFKIADGALSRLSEEQFTAEIHGAFMNVMADWSRRVRRIHWEVFSPDRVPAAGR" , thanks.
not soluble

Also need "MPEPDKQATRKKRTTSSLTDSTVFDPAKQVLWSRPGYLVRRLNQIHYALFYEECKTQNVTPVQYGVLTALSLSPWLDQTAIGMELGLDRTTTADVIKRLQERGLVERRVNPNDKRSRQAVITQEGLRIMGLLQGGMARAQQRLLEPLSPRNREIFMKLLSTLVDANNQYSRTALKAM" , thanks.
not soluble

Also need "MDFDMIEEKKDSVIVRNVENFELKDIFDCGQCFRWHRQENGNYIGIAFEKVVEVQKIGEDVVIYNINEEEFKNVWSEYFDLYRDYGEIKKELSRDPLLKKSVDFGEGIRILRQDPFEILLSFIISANNRIPMIKKCINNISEKAGKKLEYKGKIYYAFPTVDKLHEFTEKDFEECTAGFRAKYLKDTVDRIYNGELNLEYIKSLNDNECHEELKKFMGVGPQVADCIMLFSMQKYSAFPVDTWVKKAMMSLYVAPDVSLKKIRDFGREKFGSLSGFAQQYLFYYARENNIQL" , thanks.
soluble

Also need "MIYSMTAYARKEVKGNWGSAVWEIRSVNQRYLETYFRMPEQFRALEPVLRERFRKRLARGKVECSLRFEANPAAKAELSINEALATQVIKAAEQVMHMTGELSRINPFQVMQWPGVMETPEQNMDEVNKELLAAFDEAISEFIEARGREGDNMKALIEQRLDAITAEVVKVRARMPEILEWQRERLFSKFEDAKIELDASRVEQELILLAQKSDVAEELDRLDSHVKETTNILKKGGAVGRRLDFMMQEFNRESNTLASKSISTDITASGVELKVLIEQMREQIQNIE" , thanks.
not soluble

Also need "PITLVKDILSKPPITAHSNISIMEAAKILIKHNINHLPIVDEHGKLVGIITSWDIAKALAQNKKTIEEIMTRNVITAHEDEPVDHVAIKMSKYNISGVPVVDDYRRVVGIVTSEDISRLFGGKK" , thanks.
soluble

Also need "MGSDKIHHHHHHACCQGAASSGNAGKNASRVRIASNDSAKLVPDKALNDASCVLAGLPVDKASGKLYALTRTKEWKNHARYMDQIWNVFRQTAPRLVAFSQTELEDINTRCHTLFYPFGGPDFLFANAFFPEMDTYVLIGLEPAGTAPKVKHPSAETYRLYQNAVSNVLNLSFFNDMDKELANDTIDGVVPIYSLLMARGNRKIVSIQEVWLSETGDLFERKEGDTIRNTCSAGMEVRFFRPGASRLQTLYYFCTDISNEGLQANRPLQAFMDRFDAETTATFVKSASYLMHEPAFSRIRETILQKSSAVVQDDSSIPLSCFDPEVWSVTLYGTFYKPISTFSQYLQPQLRDAYQLGDPNPLNFRIGYARQSNLQVARRK" , thanks.
not soluble
